For each record, write down the corresponding solubility.
- protocol.summary: Solubility with PEG3350 as co-solvent
- Type: physicochemical
- condition.summary: 5% v/v PEG3350 as co-solvent, aqueous with cosolvent or surfactant or cyclodextrin; PEG3350 5% v/v
Lab note: write values as number then unit, every time.

IN: Endpoint output: solubility of COc1cc(OC(C)=O)c(-c2cc(OC(C)=O)c(OC)cc2OC(C)=O)cc1OC(C)=O [Compound T23] . Value?
OUT: 117 µM

IN: Also O=C(NNC(=NS(=O)(=O)c1ccc(-n2nc(C(F)(F)F)cc2-c2cccs2)cc1)N1CCCC1)c1ccc(Cl)cc1 [Compound T8] , if possible.
OUT: 48 µM

* * *

- system.tested: TNF (Homo sapiens, UniProt P01375)
- Sequence (P01375 77-233 limits assumed): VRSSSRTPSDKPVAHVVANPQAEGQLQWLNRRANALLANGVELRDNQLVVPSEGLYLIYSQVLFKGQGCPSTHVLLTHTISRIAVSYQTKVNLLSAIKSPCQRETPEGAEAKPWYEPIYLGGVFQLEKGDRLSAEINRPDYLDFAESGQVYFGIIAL
- protocol.summary: TNF-induced death assay in L929 cells
- condition.summary: 0.25 ng/mL human TNF + 2 μg/mL actinomycin D, approx. 24 h, read-out: L929 IC50 (inhibition of TNF-induced death)
I'd be grateful if you could share measured pIC50 for these entries.
Field pIC50 (float): negative decimal logarithm of the concentration in molar.

IN: Entry under review: "O=C(NNC(=NS(=O)(=O)c1ccc(-n2nc(C(F)(F)F)cc2-c2cccs2)cc1)N1CCCC1)c1ccc(Cl)cc1" . Reported pIC50?
OUT: 4.40

IN: Again, but for "COc1cc(OC(C)=O)c(-c2cc(OC(C)=O)c(OC)cc2OC(C)=O)cc1OC(C)=O"
OUT: 4.77

* * *

- protocol.summary: BM viability (MTT assay)
- Type: cell-based
- condition.summary: primary bone marrow cells, M-CSF 25 ng/mL, read-out: LC50 (RANKL complexes, BM viability)
- Experimental: BMs were plated on 96-well plates at a density of 10^5 cells/well and treated with T8 and T23 at various concentrations, in the presence of M-CSF (25 ng/mL) for 48 hours. Cell viability was determined by the 3-(4,5-dimethylthiazol-2-yl)-2,5-diphenyltetrazolium bromide (MTT) colorimetric assay, which measures the ability of viable cells to reduce a soluble tetrazolium salt to an insoluble purple formazan precipitate.[63] […] LC50 values were calculated as mean ± SEM from three independent experiments.
endpoint.name: CC50 at 48 h

IN: Request the reported CC50 at 48 h associated with "O=C(NNC(=NS(=O)(=O)c1ccc(-n2nc(C(F)(F)F)cc2-c2cccs2)cc1)N1CCCC1)c1ccc(Cl)cc1"
OUT: 42.6 µM

IN: Try the compound "COc1cc(OC(C)=O)c(-c2cc(OC(C)=O)c(OC)cc2OC(C)=O)cc1OC(C)=O"
OUT: 5.9 µM

* * *

Please go through the items and note down their pKd.
- system.tested: TNF (Homo sapiens, UniProt P01375)
- protocol.summary: Fluorescence-based binding affinity assay, TNF
- Parameters: made in house
- condition.summary: fluorescence assay, 25°C, citrate-phosphate buffer, 5% PEG3350; read-out: Kd (TNF complexes)
// pKd: -log10(molar conc.)

IN: // returns reported pKd for input "COc1cc(OC(C)=O)c(-c2cc(OC(C)=O)c(OC)cc2OC(C)=O)cc1OC(C)=O"
OUT: 5.55

IN: Also "O=C(NNC(=NS(=O)(=O)c1ccc(-n2nc(C(F)(F)F)cc2-c2cccs2)cc1)N1CCCC1)c1ccc(Cl)cc1" ?
OUT: 5.06

* * *

- system.tested: RANKL (Homo sapiens)
- Sequence (O14788 143-317): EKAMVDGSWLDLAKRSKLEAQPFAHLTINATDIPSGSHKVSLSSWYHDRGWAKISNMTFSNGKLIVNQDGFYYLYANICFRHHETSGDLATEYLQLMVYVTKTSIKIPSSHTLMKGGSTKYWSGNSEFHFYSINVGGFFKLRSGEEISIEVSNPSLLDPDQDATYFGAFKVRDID
- protocol.summary: Fluorescence-based binding affinity assay, RANKL
- condition.summary: fluorescence assay, 25°C, 25 mM Tris-HCl, 100 mM NaCl, pH 7.5, 5% PEG3350; read-out: Kd (RANKL complexes)
I'd be grateful if you could share measured Kd for these entries.

IN: Lab request: please report Kd under test system RANKL (Homo sapiens) for "O=C(NNC(=NS(=O)(=O)c1ccc(-n2nc(C(F)(F)F)cc2-c2cccs2)cc1)N1CCCC1)c1ccc(Cl)cc1"
OUT: 6.3 µM

IN: Moving on to "COc1cc(OC(C)=O)c(-c2cc(OC(C)=O)c(OC)cc2OC(C)=O)cc1OC(C)=O"
OUT: 7.3 µM

IN: Ok, now Cc1cc2occ(CN(C)CCN(C)Cc3cn(-c4cccc(C(F)(F)F)c4)c4ccccc34)c(=O)c2cc1C [SPD304, reference compound]
OUT: 13.8 µM

* * *

- system.tested: TNF (Homo sapiens, UniProt P01375)
- protocol.summary: Fluorescence-based binding affinity assay, TNF
- Design: made in house
- condition.summary: TNF 0.75 μM, PEG3350 5%, 10 mM Citrate-phosphate buffer pH 6.5; read-out: Binding affinity (Kd), TNF
endpoint.name: Kd
Write down the value, and be sure its unit follows.

IN: # lookup: Kd of "O=C(NNC(=NS(=O)(=O)c1ccc(-n2nc(C(F)(F)F)cc2-c2cccs2)cc1)N1CCCC1)c1ccc(Cl)cc1"
OUT: 8.78 µM

IN: One more compound: "COc1cc(OC(C)=O)c(-c2cc(OC(C)=O)c(OC)cc2OC(C)=O)cc1OC(C)=O"
OUT: 2.8 µM

* * *

- system.tested: UniProt:O14788
- protocol.summary: RANKL-induced osteoclastogenesis / osteoclastic (TRAP) activity assay in bone marrow cells
- condition.summary: 50 ng/ml human RANKL + 25 ng/ml M-CSF, read-out: IC50 (RANKL complexes, TRAP activity)
endpoint.name: pIC50
Please keep in mind that pIC50 is minus log10 of the molar concentration; only the number is needed.

IN: Would you kindly share the measured pIC50 for "COc1cc(OC(C)=O)c(-c2cc(OC(C)=O)c(OC)cc2OC(C)=O)cc1OC(C)=O" ?
OUT: 5.59

IN: For "O=C(NNC(=NS(=O)(=O)c1ccc(-n2nc(C(F)(F)F)cc2-c2cccs2)cc1)N1CCCC1)c1ccc(Cl)cc1" then?
OUT: 5.05

* * *

- system.tested: TNF (Homo sapiens, UniProt P01375)
- protocol.summary: Fluorescence-based binding affinity assay, TNF
- Design: made in house
- condition.summary: TNF 0.75 μM, PEG3350 2.5%, 10 mM Citrate-phosphate buffer pH 6.5; read-out: Binding affinity (Kd), TNF
endpoint.name: Kd (µM)
Provide only the numeric value, understood in µM.

IN: Form field: reported Kd of "COc1cc(OC(C)=O)c(-c2cc(OC(C)=O)c(OC)cc2OC(C)=O)cc1OC(C)=O"
OUT: 3.02

IN: And what about the molecule "O=C(NNC(=NS(=O)(=O)c1ccc(-n2nc(C(F)(F)F)cc2-c2cccs2)cc1)N1CCCC1)c1ccc(Cl)cc1" ?
OUT: 9.55

* * *

- system.tested: TNF (Homo sapiens)
- protocol.summary: Fluorescence-based binding affinity assay, TNF
- Parameters: made in house
- condition.summary: TNF 0.75 μM, PEG3350 0%, 10 mM Citrate-phosphate buffer pH 6.5; read-out: Binding affinity (Kd), TNF
endpoint.name: pKd
pKd field: float, defined as -log10 of concentration (mol/L).

IN: Any idea what pKd came out for COc1cc(OC(C)=O)c(-c2cc(OC(C)=O)c(OC)cc2OC(C)=O)cc1OC(C)=O [Compound T23] on TNF (Homo sapiens)?
OUT: 5.60

* * *

- system.tested: UniProtKB O14788
- protocol.summary: Fluorescence-based binding affinity assay, RANKL
- condition.summary: RANKL 2.5 μM, PEG3350 5%, 25 mM Tri-HCl, 100 mM NaCl pH 7.5; read-out: Binding affinity (Kd), RANKL
- Description: For use in the binding assays, recombinant TNF and RANKL were expressed and purified as previously described.[84–86] Fluorescence intensity was measure with a Synergy H1 Multi-Mode Reader (BioTek) in 96-well microplates (black) at 25°C. […] During preparation of the solutions the buffer was firstly added to all wells followed by the ligand solution and finally the protein was added. […] Kd values were calculated as mean ± SEM from three independent experiments. […]
endpoint.name: pKd
Worth noting: pKd values are minus log10 of concentrations stated in mol/L.

IN: Param item = "COc1cc(OC(C)=O)c(-c2cc(OC(C)=O)c(OC)cc2OC(C)=O)cc1OC(C)=O" ; retrieve measured pKd.
OUT: 5.15

IN: Now try "O=C(NNC(=NS(=O)(=O)c1ccc(-n2nc(C(F)(F)F)cc2-c2cccs2)cc1)N1CCCC1)c1ccc(Cl)cc1" .
OUT: 5.22

* * *

- system.tested: TNF (Homo sapiens)
- protocol.summary: Fluorescence-based binding affinity assay, TNF
- Set-up: made in house
- condition.summary: TNF 2.5 μM, PEG3350 5%, 10 mM Citrate-phosphate buffer pH 6.5; read-out: Binding affinity (Kd), TNF
- Description: For use in the binding assays, recombinant TNF and RANKL were expressed and purified as previously described.[84–86] Fluorescence intensity was measure with a Synergy H1 Multi-Mode Reader (BioTek) in 96-well microplates (black) at 25°C. […] During preparation of the solutions the buffer was firstly added to all wells followed by the ligand solution and finally the protein was added. […] Kd values were calculated as mean ± SEM from three independent experiments. […]
endpoint.name: pKd
// scale note: pKd = -log10(conc_M); give the bare number

IN: Give the measured pKd of "COc1cc(OC(C)=O)c(-c2cc(OC(C)=O)c(OC)cc2OC(C)=O)cc1OC(C)=O" .
OUT: 5.53

IN: Input "O=C(NNC(=NS(=O)(=O)c1ccc(-n2nc(C(F)(F)F)cc2-c2cccs2)cc1)N1CCCC1)c1ccc(Cl)cc1"
OUT: 5.04
